Please go through the items and note down their protein stability index.
B1: SMARCE1 (parent)
chain: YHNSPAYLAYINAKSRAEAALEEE

Variants of: B1
Assay: protein stability index of a GFP-peptide fusion (GPS, HEK-293T) (PSI 1-6); higher = more stable;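 further: lentivirally expressed fusions sorted by FACS into six bins by GFP to DsRed ratio, PSI derived from sequencing read proportions per bin multiplied by bin number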
Conditions: c terminus: a fixed tail appended
Answers are plain numbers.

Answered examples (5):
YHNSPAYLAYINAKSRAEAAAEEE
2.26
YHNAPAYLAYINAKSRAEAALEEE
3.12
YHNSPAYLAYIHAKSRAEAALEEE
3.13
YHNSPAELAYINAKSRAEAALEEE
3.06
YHNSPAYLAYINEKSRAEAALEEE
1.94

Would you mind giving protein stability index for every variant in the list below?
1. YHNSPAYLALINAKSRAEAALEEE
2. YHNSPAHLAYINAKSRAEAALEEE
3. YVNSPAYLAYINAKSRAEAALEEE
4. YHNSDAYLAYINAKSRAEAALEEE
5. LHNSPAYLAYINAKSRAEAALEEE

Result:
2
2.78
2.84
2.15
4.97

Data credit: the supplement of paper PMC10567573
